These data points were gathered from PubChem BioAssay AID1845199.

# System: 556581-035-R-J1 tumor spheroid viability, % test/control;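 further: spheroids exposed to compounds for 7 days before viability read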
# procedure_text: Anticancer human tumor 556581-035-R-J1 patient-derived ovarian carcinoma cell line growth inhibition
# condition_set: second compound 0.03 µM; first compound 0.3 µM; stronger effect = lower value; spheroids with HUVEC and MSC
Please go through the items and note down their viability, T/C.
API: value field is a number in %; no unit string.

# viability, T/C of O=C(c1cc(Cc2n[nH]c(=O)c3ccccc23)ccc1F)N1CCN(C(=O)C2CC2)CC1 + CC[C@@]1(O)C(=O)OCc2c1cc1n(c2=O)Cc2cc3c(CN(C)C)c(O)ccc3nc2-1 = 77.9

Record CNCc1ccc(-c2cc(-c3nc(-c4ccc(S(=O)(=O)C(C)C)cc4)cnc3N)on2)cc1 + CC[C@@]1(O)C(=O)OCc2c1cc1n(c2=O)Cc2cc3c(CN(C)C)c(O)ccc3nc2-1 . Reported viability, T/C: 75

Reported viability, T/C ( Cn1ncnc1[C@H]1c2n[nH]c(=O)c3cc(F)cc(c23)N[C@@H]1c1ccc(F)cc1 + CC[C@@]1(O)C(=O)OCc2c1cc1n(c2=O)Cc2cc3c(CN(C)C)c(O)ccc3nc2-1 ) = 64.9

Note to self: viability, T/C recorded for Cc1sc2c(c1C)C(c1ccc(Cl)cc1)=NC(CC(=O)Nc1ccc(O)cc1)c1nnc(C)n1-2 (centres undefined) + CC[C@@]1(O)C(=O)OCc2c1cc1n(c2=O)Cc2cc3c(CN(C)C)c(O)ccc3nc2-1 was 66.7
